test: Half life in human S9 fraction; type: ADME, subcellular
MEASURED PARAMETER: half-life

compound="CCOc1cc2ncc(C#N)c(Nc3ccc(OCc4cccc(F)c4)c(Cl)c3)c2cc1NC(=O)CC1CCSS1 (configuration not stated)" assay_result="60 min"
compound=O=c1ccc2ccc(O)cc2o1 assay_result="26.6 min"

----------
target: Cytochrome P450 2D6 (Homo sapiens, UniProt P10635)
Sequence (P10635 whole entry): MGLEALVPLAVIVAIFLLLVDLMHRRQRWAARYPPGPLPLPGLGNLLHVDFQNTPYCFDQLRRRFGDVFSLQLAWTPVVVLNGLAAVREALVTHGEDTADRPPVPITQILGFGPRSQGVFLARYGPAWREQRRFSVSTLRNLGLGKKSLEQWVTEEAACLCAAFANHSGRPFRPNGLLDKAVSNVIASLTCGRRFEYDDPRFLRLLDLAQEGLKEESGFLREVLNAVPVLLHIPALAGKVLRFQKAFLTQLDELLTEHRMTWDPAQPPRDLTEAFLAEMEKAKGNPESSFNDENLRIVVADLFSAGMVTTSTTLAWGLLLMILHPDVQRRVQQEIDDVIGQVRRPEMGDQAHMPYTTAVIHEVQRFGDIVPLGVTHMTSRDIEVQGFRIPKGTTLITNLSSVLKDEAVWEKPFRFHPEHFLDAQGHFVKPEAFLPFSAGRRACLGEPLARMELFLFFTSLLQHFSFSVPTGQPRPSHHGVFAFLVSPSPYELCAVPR
pIC50: −log10 of the molar value.
MEASURED PARAMETER: pIC50

compound="CCOc1cc2ncc(C#N)c(Nc3ccc(OCc4cccc(F)c4)c(Cl)c3)c2cc1NC(=O)CC1CCSS1 (stereo unspecified)" tgt="Cytochrome P450 2D6 (Homo sapiens, UniProt P10635)" assay_result="< 4.30"
